Below, each entry is listed alongside its reported MIC.
# Tested on: Escherichia coli
# measurement.protocol: Antimicrobial activity against […] Escherichia coli harboring mcr-1 assessed as bacterial growth inhibition incubated for 20 hrs by broth microdilution method
# Type: functional
Positions of bridges follow the written chain, without caps; N, C: chain ends. Non-standard residues stand in square brackets, D forms with d. Residues, ends and D or L forms follow the SMILES beside them. *: point of attachment. Phe(2-F) = N[C@@H](Cc1ccccc1F)C(=O)O; d(hhPhe) = N[C@H](CCCc1ccccc1)C(=O)O; hPhe = N[C@@H](CCc1ccccc1)C(=O)O; Octanoyl = CCCCCCCC(=O)*; Dab = NCC[C@H](N)C(=O)O
Enter your answer as a number in µg/mL; do not include the unit.

# annotated cases, reported MIC shown
compound	data.value
CCCCCCCC(=O)N[C@@H](CCN)C(=O)N[C@H](C(=O)N[C@@H](CCN)C(=O)N[C@H]1CCNC(=O)[C@H]([C@@H](C)O)NC(=O)[C@H](CCN)NC(=O)[C@H](CCN)NC(=O)[C@H](CCc2ccccc2)NC(=O)[C@@H](CC(C)C)NC(=O)[C@H](CCN)NC1=O)[C@@H](C)O (Octanoyl-[Dab]T[Dab][Dab][Dab][dL][hPhe][Dab][Dab]T; lactam 4-C)	1
CCCCCCCC(=O)N[C@@H](CCN)C(=O)N[C@H](C(=O)N[C@@H](CCN)C(=O)N[C@H]1CCNC(=O)[C@H]([C@@H](C)O)NC(=O)[C@H](CCN)NC(=O)[C@H](CCN)NC(=O)[C@H](Cc2ccccc2F)NC(=O)[C@@H](CC(C)C)NC(=O)[C@H](CCN)NC1=O)[C@@H](C)O (Octanoyl-[Dab]T[Dab][Dab][Dab][dL][Phe(2-F)][Dab][Dab]T; lactam 4-C)	2

Please turn your attention to the following entry.
Fill in: Escherichia coli MIC for CCCCCCCC(=O)N[C@@H](CCN)C(=O)N[C@H](C(=O)N[C@@H](CCN)C(=O)N[C@H]1CCNC(=O)[C@H]([C@@H](C)O)NC(=O)[C@H](CCN)NC(=O)[C@H](CCN)NC(=O)[C@H](Cc2ccccc2)NC(=O)[C@@H](CCCc2ccccc2)NC(=O)[C@H](CCN)NC1=O)[C@@H](C)O (Octanoyl-[Dab]T[Dab][Dab][Dab][d(hhPhe)]F[Dab][Dab]T; lactam 4-C) = 2
